Each recorded value in this set is attributed to the supplement of paper PMC10567573.

Listing of entries alongside the reported protein stability index.
- protocol-summary: protein stability index of a GFP-peptide fusion (GPS, HEK-293T) (PSI 1-6); higher = more stable;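 note: 24-mer peptide tiles fused after GFP, lentivirally expressed, FACS-sorted into six equal bins by GFP/DsRed ratio, decoded by Illumina sequencing, PSI is the read-weighted mean bin number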
- condition-set: treatment: DMSO; c terminus: a fixed tail appended
The answer should be written as a number, with no unit following it.

residues: NCKPLKSYMLQDSLEHVQLFDLMR [CLK3]
protein stability index: 2.11
//
residues: SRFVETLVVADDKMAAFHGAGLKR [ADAMTS4]
protein stability index: 3.46
//
residues: EVFRFVQSCARAVVPSYIPLVKKH [CPOX]
protein stability index: 2.12
//
residues: HMILENCSISKMEEEAGQTSIEPS [ZER1]
protein stability index: 5.14

Which protein stability index reading was recorded for the sequence LLKYRAREPVTKAEMLGSVVGNWQ [MAGEA3] ? 2.39

What do you have for TVVEEPVDITPYLDQLDESLRDKV [INTS3] ? 5.12

What do you have for FAEKGELRKSIFSESRKPTVSIME [TRIM29] ? 2.37

What do you have for LHARLRELLCELGRPSMVWLSANP [PRAME] ? 2.65

What do you have for GRLEGLIQPDDLINQLTFIMDANQ [FAF2] ? 2.8

What do you have for LQGTESLNRATQSIERSHRIATET [VTI1B] ? 4.65

What do you have for ARQHALYIWEKSIGNLVKILHGTR [RBBP5] ? 2.26

What do you have for DFANTIPGHGGIMDRFDCQYLMAT [CDS1] ? 2.42

What do you have for ISSIKEKYPSHSFIGEESVAAGEK [IMPA1] ? 4.8

What do you have for VVPGDHLLEPEVADGGGAPPQGGC [KCNA3] ? 5.37

----------
- protocol-summary: protein stability index of a GFP-peptide fusion (GPS, HEK-293T) (PSI 1-6); higher = more stable
- condition-set: treatment: MLN4924 1 uM, 8 h; c terminus: a fixed tail appended
measured-property: protein stability index
The answer should be written as a number, with no unit following it.

Below: 4 sequences and their reported protein stability index.
residues: ILIIRFEMPYNIWCDGCKNHIGMG [YJU2B]
measured-property: protein stability index
reading: 2.96

residues: HAASDPSSSSGRLSEPDPSHTLEE [SMOC2]
measured-property: protein stability index
reading: 5.43

residues: KPVDIWACGVILYILLVGYPPFWD [CAMK2B]
measured-property: protein stability index
reading: 3.03

residues: LTYENVERWLKELRDHADSNIVIM [RAB11A]
measured-property: protein stability index
reading: 2.75

Which protein stability index reading was recorded for the sequence VCSSNKPAIVEAGGMQALGLHLTD [CTNNB1] ? 3.89

----------
- protocol-summary: protein stability index of a GFP-peptide fusion (GPS, HEK-293T) (PSI 1-6); higher = more stable
- condition-set: treatment: DMSO; c terminus: a fixed tail appended
Decision: protein stability index >= 4 yields Condition met, all other cases yield Condition not met.

residues: KEPATMSWLEENVHEVLQAVDAGD [TCF25]
group-label: Condition met
//
residues: GGNDLCVWNRKLDLLCKTSHLSDT [WDR41]
group-label: Condition not met
//
residues: AKGIPQRAPPKRKRKRVKQRINTY [PCMTD1]
group-label: Condition met

Could you verify whether the entry SLKAPGARGPGPEGGGGGSYFSGQ [JUNB] shows protein stability index of no less than 4? Condition met

What do you have for YGYNNVVTIPAGATHILVRQQGNP [ADAMTS4] ? Condition not met

What do you have for LRAVRQRSEFTLMAKRIGKDLSNT [STX5] ? Condition not met
